target-system: Sut1 (UniProt P53032)
Sequence: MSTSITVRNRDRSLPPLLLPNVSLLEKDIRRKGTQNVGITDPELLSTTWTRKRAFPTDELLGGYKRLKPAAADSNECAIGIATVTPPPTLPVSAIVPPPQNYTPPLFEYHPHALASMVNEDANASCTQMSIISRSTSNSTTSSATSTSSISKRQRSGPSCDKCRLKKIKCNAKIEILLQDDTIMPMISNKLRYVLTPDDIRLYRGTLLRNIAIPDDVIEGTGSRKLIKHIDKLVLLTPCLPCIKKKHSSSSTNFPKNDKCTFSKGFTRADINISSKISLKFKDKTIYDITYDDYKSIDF
protocol: PBM E-score (8-mer binding enrichment) (E-score (-0.5 to 0.5)); higher = stronger / more preferred TF binding
conditions-used: protein concentration: 200 nM; construct: GST-full length
Whole data set: some 33,000 sequences, median “E-score (-0.5 to 0.5)” near -0.017, cut for the highest 2% near 0.3. This excerpt belongs to a sample that is enriched for the highest values.
Label scheme for PBM E-score: lower than 0.002 is Not met, 0.002 and above is Met.

Here are 10 sequences together with their reported answers.
residue-string: CCGGAACG
discrete-label: Met
//
residue-string: CTCCGCTC
discrete-label: Met
//
residue-string: AGTTTTTG
discrete-label: Met
//
residue-string: GAACCGAA
discrete-label: Met
//
residue-string: AATGATAA
discrete-label: Met
//
residue-string: AATTTAAC
discrete-label: Met
//
residue-string: CGAGCGTC
discrete-label: Not met
//
residue-string: ATCCGATC
discrete-label: Met
//
residue-string: GTCCCCGA
discrete-label: Met
//
residue-string: GAATAGGC
discrete-label: Not met

Say whether `AATCCCAG` shows PBM E-score of 0.002 or more. Met

Say whether `TTCCGCAA` shows PBM E-score of 0.002 or more. Met

Say whether `CCCTCGCG` shows PBM E-score of 0.002 or more. Not met

Say whether `TTAAATAA` shows PBM E-score of 0.002 or more. Met

Say whether `GAGTGGTA` shows PBM E-score of 0.002 or more. Not met
